assay: gradient 5% acetonitrile 3 min, to 50% in 2 min, to 85% in 15 min, held 3 min, 100 µL/min; conditions: column: Zorbax Extend-C18 2.1 x 50 mm; eluents: water / acetonitrile, 0.1% formic acid
Entries annotated with measured RP-LC retention time

COMPOUND	RP-LC retention time
COc1ccc(C2Nc3ccccc3NC3=C2C(=O)CC(c2cccs2)C3)cc1OC (centres undefined)	730 s
COc1cc(C(=O)Nc2nc(-c3ccc(F)cc3)cs2)cc(OC)c1OC	1040 s
COC(=O)C1=CN(c2ccccc2)c2cc(F)ccc2S1(=O)=O	787 s
O=C(NCc1ccccc1)C1CCCN(c2ncnc3c2nc2n3CCCCC2)C1 (centres undefined)	732 s

---

test: gradient 5% acetonitrile 3 min, to 50% in 2 min, to 85% in 15 min, held 3 min, 100 µL/min; conditions: column: Zorbax Extend-C18 2.1 x 50 mm; eluents: water / acetonitrile, 0.1% formic acid

MOLECULE	RP-LC retention time
CCCNC(=O)C1CCCN(c2ccc(SCC(=O)Nc3cc(Cl)ccc3C)nn2)C1 (stereo not drawn)	720 s
CCN(CC)C(=O)CSc1nnc(-c2ccc3c(c2)OCCCO3)n1C	691 s
O=S(=O)(c1ccc2c(c1)CCC2)N1CC[C@@H]2COCCN(Cc3cccnc3)[C@@H]2C1	687 s

---

assay: gradient 5% acetonitrile 3 min, to 50% in 2 min, to 85% in 15 min, held 3 min, 100 µL/min; conditions: column: Zorbax Extend-C18 2.1 x 50 mm; eluents: water / acetonitrile, 0.1% formic acid

COMPOUND	RP-LC retention time
O=C1CC(CNS(=O)(=O)c2cccnc2)CN1c1ccc(Cl)cc1 (stereo unspecified)	694 s
O=C(Cn1c(=O)c2cccn2c2ccccc21)NC1CC1	688 s
O=C(Nc1ccc(N2CCOCC2)cc1)c1cc(C2CC2)n2nccc2n1	846 s
CCCCNC(=O)CCCN1C(=O)CCn2nc(-c3cn(C)c4ccccc34)cc21	781 s
O=C(O)c1ccc2c(c1)n(Cc1cccc(F)c1)c(=O)c1ccnn12	784 s
O=C(Nc1ccc2c(c1)OCCO2)C1CN(S(=O)(=O)C2CC2)CC12CCCCC2 (stereo unspecified)	881 s
CCNC(=O)C1CCN(c2nc3ccc(-c4ccccc4)nc3s2)CC1	835 s
COc1ccc(C(=O)N2CCC3(CC2)NC(=O)c2cc(C)ccc2N3C)c(OC)c1	754 s
COc1ccc(Cn2nc3c(S(=O)(=O)N4CCCCCC4)cccn3c2=O)cc1	909 s
COc1ccc(OC)c(CCNC(=O)c2c(N3CCCC3=O)c3cc(F)ccc3n2C)c1	919 s
Cc1ccc(CNC(=O)Cn2cccc2-c2nnc(-c3ccccc3)o2)cc1	940 s
Cc1cc(N2CCCC2)nc(N2CCN(C(=O)c3ccccc3Br)CC2)n1	579 s
CSc1cccc(NC(=O)N(C)CCc2noc(-c3ccc(F)cc3)n2)c1	922 s
COC(=O)c1c(C)[nH]c(C(=O)N2CCC(CC(=O)NCCN3CCOCC3)CC2)c1C	584 s
COc1ccc(NC(=O)C2(C)Oc3cccnc3N(C)C2=O)c(OC)c1 (stereo unspecified)	815 s
CCN1CCN(c2ccc(NC(=O)c3ccc(F)cc3Cl)cn2)C1=O	742 s
O=C(NCc1ccccc1)C1CCN(S(=O)(=O)c2cc(C(=O)N3CCCC3)cs2)CC1	760 s
COc1cccc(CNC(=O)COc2cc(C)nc(N3CCN(c4ccccc4)CC3)n2)c1OC	783 s
CCOc1ccc(C(=O)N2CCc3nc[nH]c3C2)cc1	565 s
COc1ccc(C)cc1NC(=O)Cn1nc2nc(N3CCCCC3C)ccn2c1=O (stereo unspecified)	840 s
Cc1ccc(C)c(C2=NC3(CCN(C(C)C)CC3)NC(c3cc(Cl)ccc3O)C2)c1 (stereo unspecified)	679 s
CC(=O)c1cccc(NC(=O)Cn2cc(-c3nnc(C)o3)c3ccccc32)c1	755 s
COc1ccc(-c2nc(CCS(=O)(=O)c3ccc(C)cc3)no2)cc1OC	904 s
CC(C)Oc1ccc(-c2noc(CN3N=NC4C(=O)N(c5cccc(Cl)c5)C(=O)C43)n2)cc1 (stereo unspecified)	1040 s
OC(CN1CCN(c2ccc(F)cc2)CC1)c1ccc2c(c1)OCO2 (stereo unspecified)	635 s
O=C(NC1CC1)c1cc2cc(Cl)ccc2[nH]1	809 s

---

Entries annotated with measured RP-LC retention time
assay: gradient 5% acetonitrile 3 min, to 50% in 2 min, to 85% in 15 min, held 3 min, 100 µL/min; settings: column: Zorbax Extend-C18 2.1 x 50 mm; eluents: water / acetonitrile, 0.1% formic acid
VALUE_TYPE: RP-LC retention time (s)

COMPOUND	VALUE_TYPE	ASSAY_RESULT
O=S(=O)(c1ccc(F)cc1)N1CCN(c2cnn3cnnc3c2)CC1	RP-LC retention time	653
Cc1ccc2cc(CCC(=O)N3CCN(c4ncccn4)CC3)c(=O)[nH]c2c1	RP-LC retention time	670
CC(C)CNc1ccc2nncn2n1	RP-LC retention time	644
CCCOc1nc2ccccc2nc1N1CCCC(C(=O)NCc2ccccc2)C1 (stereo not drawn)	RP-LC retention time	1180
CCNC(=O)N1CCCC(Cn2c(C3CC3)nc3cccnc32)C1 (stereo not drawn)	RP-LC retention time	585
CCOc1ccc(-c2nc(-c3ccc4c(c3)oc(=O)n4C)no2)cc1	RP-LC retention time	1130
COc1ccc(NC(=O)c2[nH]c3cc(C)sc3c2CN2CCCC2)c(C)c1	RP-LC retention time	708
O=C(NCCc1ccco1)c1nc(Nc2ccc(F)cc2)c2ccccc2n1	RP-LC retention time	784
O=C(Cc1cccc(F)c1)NC1(c2nc(-c3ccsc3)no2)CCCCC1	RP-LC retention time	589
CC(C)c1ccc(NC(=O)C2CCN(S(C)(=O)=O)c3cc(Cl)ccc3O2)cc1 (stereo not drawn)	RP-LC retention time	1110
Cc1ccc(Cn2cc(-c3ccncc3)cc2C(=O)Nc2ccc3c(c2)OCO3)cc1	RP-LC retention time	760
CN(C)C(CNC(=O)c1ccc(Br)o1)c1cn(C)c2ccccc12 (stereo not drawn)	RP-LC retention time	578
CCC(=O)NCc1nc2c(n1C)CN(S(=O)(=O)c1ccc(F)cc1F)CC2	RP-LC retention time	600
O=C(Nc1ccc2c(c1)OCO2)c1nnc(C2CCCN2C(=O)NCc2ccc(F)cc2)s1 (stereo not drawn)	RP-LC retention time	854
CCCCN1C(=O)C(NC(=O)c2ccccc2OC)(C(F)(F)F)C(C(C)=O)=C1C (stereo not drawn)	RP-LC retention time	976
COc1ccc(-c2cn3cccnc3n2)cc1NC(=O)c1ccc(Cl)cc1	RP-LC retention time	743
CCOc1ccccc1NC(=O)Cn1cnc2nc(N3CCCC(C(=O)NC(C)C)C3)sc2c1=O (stereo not drawn)	RP-LC retention time	743
Cc1ccc(-c2noc(-c3nnn(Cc4nc(-c5cccc(Cl)c5)oc4C)c3C)n2)cc1	RP-LC retention time	908
O=C(NC1CCCC1)N1CCC[C@H]1c1nc(-c2ccccc2)n[nH]1	RP-LC retention time	697
CCOc1ccccc1OCc1nn2c(CSc3ccccc3)nnc2s1	RP-LC retention time	1000
Cc1nnc(N2CCCC(C(=O)NC3CCCCCC3)C2)c2nn(-c3ccc(Cl)cc3)c(C)c12 (stereo not drawn)	RP-LC retention time	831
O=C(Nc1ccc2c(c1)OCCO2)N1CC2(CCCCC2)CC1COc1ccncc1 (stereo not drawn)	RP-LC retention time	604
O=C(CSc1ncnc2c1cnn2-c1ccc(Cl)cc1)Nc1ccc(F)cc1F	RP-LC retention time	750
O=C(Nc1ccc(F)c(F)c1)c1cc2n(n1)CCCC2	RP-LC retention time	887
Brc1ccc(-c2ccc(CNCC3CCNCC3)o2)cc1	RP-LC retention time	597
Cc1noc(C)c1CC(=O)N1CCC2(CC1)N(CC1CC1)C(=O)CS2=O (stereo not drawn)	RP-LC retention time	613
CC1CCCCN1CCNC(=O)CN1CCN(C(=O)Nc2ccc(Br)cc2)CC1=O (stereo not drawn)	RP-LC retention time	610
CN(C)S(=O)(=O)N1CCCC(c2nc(-c3ccccc3)no2)CCNC(=O)CC1 (stereo not drawn)	RP-LC retention time	782
CCOc1cc(=O)n2c(c1C(=O)Nc1cc(Cl)ccc1OC)CCCC2	RP-LC retention time	854
O=[N+]([O-])c1cc(F)c2cccnc2c1O	RP-LC retention time	773
CCOc1ccc(NC(=O)C2CCCN(c3nnc4cccc(C)n34)C2)cc1 (stereo not drawn)	RP-LC retention time	724
Cc1cccc(CNC(=O)C2CCCN(S(=O)(=O)c3cc(-c4noc(C)n4)cs3)C2)c1 (stereo not drawn)	RP-LC retention time	1010
COC(=O)c1ccc(NC(=O)c2cnc(-c3ccc(C)cc3)nc2-c2ccncc2)cc1	RP-LC retention time	961

---

assay: gradient 5% acetonitrile 3 min, to 50% in 2 min, to 85% in 15 min, held 3 min, 100 µL/min; conditions: column: Zorbax Extend-C18 2.1 x 50 mm; eluents: water / acetonitrile, 0.1% formic acid
We label by threshold. Values of RP-LC retention time strictly beneath 800 s are class 1. Values of 800 s and up are class 0.

COMPOUND	GROUP
Cn1c(=O)c2nc(S(=O)(=O)CCC(=O)Nc3ccc(F)c(Cl)c3)n(C)c2n(C)c1=O	class 1
O=S(=O)(Cc1ccccc1Cl)N1CCc2nc(-c3ccc(Cl)cc3)ncc2C1	class 0
O=C(CCc1c[nH]c2ccccc12)NC1CCN(c2ccc(=O)[nH]n2)C1 (stereo not drawn)	class 1
CC1=NS(=O)(=O)N(Cc2ccccc2)C=C1C(=O)OCc1nc(-c2ccccc2Cl)no1	class 0
CCN(CC)S(=O)(=O)c1ccc2c(c1)N(CC(=O)NC)C(=O)C1CCCCN21 (stereo not drawn)	class 1
O=C(Nc1ccc(F)cc1)C1CCCN(c2ccc(=O)n(-c3ccc(F)cc3)n2)C1 (stereo not drawn)	class 0
COCCC(=O)N1CCCn2nc(-c3cccc(OC)c3)cc2C1	class 1
CN(CCc1ccc(Cl)c(Cl)c1)CC(O)COc1ccc(NS(C)(=O)=O)cc1 (stereo not drawn)	class 1
Cc1ccc(-c2c(N3CCN(c4ccccn4)CC3)c(=O)c2=O)cc1	class 1
CCCc1noc(-c2ccc(-n3ncc(C(=O)N4CCOCC4)c3C)nc2)n1	class 0
COc1ccc(CCNC(=O)c2ccc(-n3nc(C)cc3C)nc2)cc1OC	class 1
CC1(O)CCOC2(CCN(Cc3cn[nH]c3-c3ccc(F)cc3)CC2)C1 (stereo not drawn)	class 1
Cc1noc(COC2CCCN(C(=O)NCCc3ccccc3)C2)n1 (stereo not drawn)	class 1
CC(C)n1c(=O)sc2cc(S(=O)(=O)N3CCC(C(=O)N(C)Cc4ccccc4)CC3)ccc21	class 0
CCOc1cccc(CNC(=O)c2nc3cccnc3n(CC)c2=O)c1	class 1
CCCn1c(=O)c(-c2ccc(C(=O)NCC(C)C)cc2)nc2cccnc21	class 0
CC(=O)Nc1c(C)noc1/C=C/c1ccc(S(=O)(=O)N2CCC(C)CC2)s1	class 0
CCC(C(=O)NC1CC1)n1nc(C)c2c(C)n(-c3ccccc3)nc2c1=O (stereo not drawn)	class 1
CCc1ccc(NC(=O)C2CCN(S(=O)(=O)c3cc(C(=O)N4CCOCC4)cs3)CC2)cc1	class 0
CCC(CC)CN1CCC(n2c(C)cnc2-c2ccccc2)C1 (stereo not drawn)	class 1
Cc1ccc(-c2csc(NC(=O)COc3ccccc3C(C)(C)C)n2)cc1	class 0
O=C(N[C@@H]1CN(c2ncccn2)C[C@H]1CO)c1ccco1	class 1
Cc1[nH]c(C(=O)N2CCCC(C(=O)NCc3ccc(N(C)C)cc3)C2)c(C)c1C(=O)OC(C)C (stereo not drawn)	class 1
Cc1ccc(-n2nc3c(N4CCCC(C(=O)NCCCN5CCCC5=O)C4)nnc(C)c3c2C)cc1 (stereo not drawn)	class 1
Cc1cc(C)n2c(Nc3ccccc3)c(-c3ccccc3)nc2n1	class 1
